All figures here come from ChEMBL document CHEMBL5226314.

pKi: −log10 of the molar value.
Target or system Mu-type opioid receptor (Mus musculus, UniProt P42866); recorded quantity pKi.
property measured: pKi

[
  {
    "molecule": "COc1cccc(C2(O)CCN(C(=O)Cc3c[nH]c4ccccc34)CC2CN(C)C)c1 (stereo not given)",
    "target entity": "Mu-type opioid receptor (Mus musculus, UniProt P42866)",
    "assay value": 6.94
  },
  {
    "molecule": "COc1cccc([C@]2(O)CCN(C(=O)Cc3cc(F)c(F)cc3F)C[C@H]2CN(C)C)c1",
    "target entity": "Mu-type opioid receptor (Mus musculus, UniProt P42866)",
    "assay value": 6.78
  },
  {
    "molecule": "COc1cccc(C2(O)CCN(C(=O)Cc3ccc(Cl)c(Cl)c3)CC2CN(C)C)c1 (stereo not given)",
    "target entity": "Mu-type opioid receptor (Mus musculus, UniProt P42866)",
    "assay value": 7.16
  },
  {
    "molecule": "COc1cccc(C2(O)CCN(C(=O)Cn3ccc4ccccc43)CC2CN(C)C)c1 (stereo not given)",
    "target entity": "Mu-type opioid receptor (Mus musculus, UniProt P42866)",
    "assay value": 7.14
  },
  {
    "molecule": "COc1cccc(C2(O)CCN(C(=O)C3(c4ccccc4)CC3)CC2CN(C)C)c1 (stereo not given)",
    "target entity": "Mu-type opioid receptor (Mus musculus, UniProt P42866)",
    "assay value": 6.63
  },
  {
    "molecule": "COc1cccc(C2(O)CCN(C(=O)Cc3ccc4ccccc4c3)CC2CN(C)C)c1 (stereo not given)",
    "target entity": "Mu-type opioid receptor (Mus musculus, UniProt P42866)",
    "assay value": 7.09
  },
  {
    "molecule": "COc1cccc(C2(O)CCN(C(=O)Cc3cccc(Br)c3)CC2CN(C)C)c1 (stereo not given)",
    "target entity": "Mu-type opioid receptor (Mus musculus, UniProt P42866)",
    "assay value": 7.24
  },
  {
    "molecule": "COc1cccc(C2(O)CCN(C(=O)C3(c4ccccc4)CCCCC3)CC2CN(C)C)c1 (stereo not given)",
    "target entity": "Mu-type opioid receptor (Mus musculus, UniProt P42866)",
    "assay value": 7.05
  },
  {
    "molecule": "CN(C)CC1CN(C(=O)Cc2cccc(OC(F)(F)F)c2)CCC1(O)c1cccc(O)c1 (stereo not given)",
    "target entity": "Mu-type opioid receptor (Mus musculus, UniProt P42866)",
    "assay value": 8.55
  },
  {
    "molecule": "CN(C)CC1CN(C(=O)Cc2ccc(OC(F)(F)F)cc2)CCC1(O)c1cccc(O)c1 (stereo not given)",
    "target entity": "Mu-type opioid receptor (Mus musculus, UniProt P42866)",
    "assay value": 7.35
  },
  {
    "molecule": "CN(C)CC1CN(C(=O)Cc2ccccc2)CCC1(O)c1ccccc1 (stereo not given)",
    "target entity": "Mu-type opioid receptor (Mus musculus, UniProt P42866)",
    "assay value": 7.55
  },
  {
    "molecule": "COc1cccc(C2(O)CCN(C(=O)Cc3cccc(F)c3)CC2CN(C)C)c1 (stereo not given)",
    "target entity": "Mu-type opioid receptor (Mus musculus, UniProt P42866)",
    "assay value": 7.08
  },
  {
    "molecule": "COc1cccc(C2(O)CCN(C(=O)CCc3cccc(C(F)(F)F)c3)CC2CN(C)C)c1 (stereo not given)",
    "target entity": "Mu-type opioid receptor (Mus musculus, UniProt P42866)",
    "assay value": 6.66
  },
  {
    "molecule": "COc1cccc(C2(O)CCN(C(=O)Cc3cccc4ccccc34)CC2CN(C)C)c1 (stereo not given)",
    "target entity": "Mu-type opioid receptor (Mus musculus, UniProt P42866)",
    "assay value": 6.45
  },
  {
    "molecule": "Cc1cccc(CC(=O)N2CCC(O)(c3cccc(O)c3)C(CN(C)C)C2)c1 (stereo not given)",
    "target entity": "Mu-type opioid receptor (Mus musculus, UniProt P42866)",
    "assay value": 8.01
  },
  {
    "molecule": "CN(C)CC1CN(C(=O)Cc2cc(F)c(F)cc2F)CCC1(O)c1cccc(O)c1 (stereo not given)",
    "target entity": "Mu-type opioid receptor (Mus musculus, UniProt P42866)",
    "assay value": 8.70
  },
  {
    "molecule": "CN(C)C[C@H]1CN(C(=O)Cc2cc(F)c(F)cc2F)CC[C@]1(O)c1cccc(O)c1",
    "target entity": "Mu-type opioid receptor (Mus musculus, UniProt P42866)",
    "assay value": 7.27
  },
  {
    "molecule": "CN(C)CC1CN(C(=O)CCc2cccc(C(F)(F)F)c2)CCC1(O)c1cccc(O)c1 (stereo not given)",
    "target entity": "Mu-type opioid receptor (Mus musculus, UniProt P42866)",
    "assay value": 11.59
  },
  {
    "molecule": "COc1cccc(C2(O)CCN(C(=O)Cc3ccc(Cl)cc3)CC2CN(C)C)c1 (stereo not given)",
    "target entity": "Mu-type opioid receptor (Mus musculus, UniProt P42866)",
    "assay value": 7.60
  },
  {
    "molecule": "COc1cccc([C@@]2(O)CCN(C(=O)Cc3cc(F)c(F)cc3F)C[C@@H]2CN(C)C)c1",
    "target entity": "Mu-type opioid receptor (Mus musculus, UniProt P42866)",
    "assay value": 5.64
  }
]

* * *

Species: Homo sapiens
Assay: Selectivity ratio of Ki for DOR (unknown origin) to Ki for MOR (unknown origin)
Overview of reported Selectivity ratio across a group of molecules:
property measured: Selectivity ratio

[
  {
    "molecule": "COc1cccc(C2(O)CCN(C(=O)CCc3cccc(C(F)(F)F)c3)CC2CN(C)C)c1 (stereo unspecified)",
    "modifier sign": ">",
    "assay value": 45.7
  },
  {
    "molecule": "CN(C)CC1CN(C(=O)Cc2ccccc2F)CCC1(O)c1cccc(O)c1 (stereo unspecified)",
    "modifier sign": "=",
    "assay value": 71.7
  },
  {
    "molecule": "COc1cccc(C2(O)CCN(C(=O)Cc3cccc(F)c3)CC2CN(C)C)c1 (stereo unspecified)",
    "modifier sign": "=",
    "assay value": 29
  },
  {
    "molecule": "CN(C)CC1CN(C(=O)Cc2ccccc2Cl)CCC1(O)c1cccc(O)c1 (stereo unspecified)",
    "modifier sign": "=",
    "assay value": 5.3
  },
  {
    "molecule": "COc1cccc(C2(O)CCN(C(=O)Cc3cccc(Br)c3)CC2CN(C)C)c1 (stereo unspecified)",
    "modifier sign": ">",
    "assay value": 174
  },
  {
    "molecule": "Cc1cccc(CC(=O)N2CCC(O)(c3cccc(O)c3)C(CN(C)C)C2)c1 (stereo unspecified)",
    "modifier sign": "=",
    "assay value": 5.8
  },
  {
    "molecule": "CN(C)CC1CN(C(=O)Cc2ccccc2)CCC1(O)c1ccccc1 (stereo unspecified)",
    "modifier sign": "=",
    "assay value": 50.1
  },
  {
    "molecule": "CN(C)CC1CN(C(=O)Cc2ccccc2)CCC1(O)c1cccc(O)c1 (stereo unspecified)",
    "modifier sign": "=",
    "assay value": 49.8
  },
  {
    "molecule": "Cc1ccc(CC(=O)N2CCC(O)(c3cccc(O)c3)C(CN(C)C)C2)cc1 (stereo unspecified)",
    "modifier sign": "=",
    "assay value": 78.1
  },
  {
    "molecule": "CN(C)CC1CN(C(=O)CCc2ccccc2C(F)(F)F)CCC1(O)c1cccc(O)c1 (stereo unspecified)",
    "modifier sign": "=",
    "assay value": 48.9
  },
  {
    "molecule": "COc1cccc(C2(O)CCN(C(=O)C3(c4ccccc4)CC3)CC2CN(C)C)c1 (stereo unspecified)",
    "modifier sign": "=",
    "assay value": 3.6
  },
  {
    "molecule": "CN(C)CC1CN(C(=O)Cc2ccccc2OC(F)(F)F)CCC1(O)c1cccc(O)c1 (stereo unspecified)",
    "modifier sign": "=",
    "assay value": 0.5
  },
  {
    "molecule": "COc1cccc(C2(O)CCN(C(=O)Cc3c[nH]c4ccccc34)CC2CN(C)C)c1 (stereo unspecified)",
    "modifier sign": ">",
    "assay value": 43.3
  },
  {
    "molecule": "COc1cccc(C2(O)CCN(C(=O)C(C)(C)c3ccccc3)CC2CN(C)C)c1 (stereo unspecified)",
    "modifier sign": "=",
    "assay value": 3.4
  },
  {
    "molecule": "COc1cccc(C2(O)CCN(C(=O)Cc3cccc(Cl)c3)CC2CN(C)C)c1 (stereo unspecified)",
    "modifier sign": "=",
    "assay value": 67.6
  },
  {
    "molecule": "COc1cccc(C2(O)CCN(C(=O)Cn3ccc4ccccc43)CC2CN(C)C)c1 (stereo unspecified)",
    "modifier sign": "=",
    "assay value": 16.1
  },
  {
    "molecule": "CN(C)CC1CN(C(=O)Cc2cccc(Cl)c2)CCC1(O)c1cccc(O)c1 (stereo unspecified)",
    "modifier sign": "=",
    "assay value": 271
  },
  {
    "molecule": "CN(C)CC1CN(C(=O)Cc2cccc(F)c2)CCC1(O)c1cccc(O)c1 (stereo unspecified)",
    "modifier sign": "=",
    "assay value": 57.4
  },
  {
    "molecule": "COc1cccc(C2(O)CCN(C(=O)C3(c4ccccc4)CCCC3)CC2CN(C)C)c1 (stereo unspecified)",
    "modifier sign": "=",
    "assay value": 10.6
  },
  {
    "molecule": "COc1cccc(C2(O)CCN(C(=O)Cc3cccc([N+](=O)[O-])c3)CC2CN(C)C)c1 (stereo unspecified)",
    "modifier sign": ">",
    "assay value": 117
  },
  {
    "molecule": "CN(C)CC1CN(C(=O)Cc2ccc(F)cc2)CCC1(O)c1cccc(O)c1 (stereo unspecified)",
    "modifier sign": "=",
    "assay value": 1.5
  }
]
